Experiment: Leishmania major promastigote growth inhibition, primary screen (AID 1063);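 also: promastigotes grown with compound for 44 hours at 28 °C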
Details: Leishmania major promastigotes, resazurin fluorescence viability; at 10 µM; stronger effect = higher value
The campaign covered roughly 200,000 compounds. About 18,000 (9%) were called active. What follows is part of a selection rich in actives, with near analogues and random picks from the rest.
metric.name: inhibition (%)
Just the number please, in %, no unit attached.

Observe how each entry below is paired with its result.
compound | inhibition (%)
Cc1ccc(Sc2ccncc2S(N)(=O)=O)cc1 | 84.9
Cc1ccccc1OCC(O)CN1CCN(c2ccccn2)CC1 (stereo not drawn) | 3.89
Cc1ccnc(Nc2nc3ccccc3s2)n1 | 11.8

Data request: Look up inhibition: CCN(CC)CCNC(=O)c1sc2ncn(CC(=O)Nc3ccc(C)c(Cl)c3)c(=O)c2c1C
Data returned: 87.1

Data request: Try this compound too: c1ccc2sc(NN=C3CCCC3)nc2c1
Data returned: 57

Data request: Try this compound too: Cc1cccc(C(=O)NCC(=O)OCC(=O)N2CC3(C)CC2CC(C)(C)C3)c1 (stereo not drawn)
Data returned: 43.9

Taken from PubChem BioAssay AID1063.
